pKi: −log10 of the molar value.
Muscarinic acetylcholine receptor M3 (Homo sapiens, UniProt P20309) pKi data
Sequence (P20309 whole entry): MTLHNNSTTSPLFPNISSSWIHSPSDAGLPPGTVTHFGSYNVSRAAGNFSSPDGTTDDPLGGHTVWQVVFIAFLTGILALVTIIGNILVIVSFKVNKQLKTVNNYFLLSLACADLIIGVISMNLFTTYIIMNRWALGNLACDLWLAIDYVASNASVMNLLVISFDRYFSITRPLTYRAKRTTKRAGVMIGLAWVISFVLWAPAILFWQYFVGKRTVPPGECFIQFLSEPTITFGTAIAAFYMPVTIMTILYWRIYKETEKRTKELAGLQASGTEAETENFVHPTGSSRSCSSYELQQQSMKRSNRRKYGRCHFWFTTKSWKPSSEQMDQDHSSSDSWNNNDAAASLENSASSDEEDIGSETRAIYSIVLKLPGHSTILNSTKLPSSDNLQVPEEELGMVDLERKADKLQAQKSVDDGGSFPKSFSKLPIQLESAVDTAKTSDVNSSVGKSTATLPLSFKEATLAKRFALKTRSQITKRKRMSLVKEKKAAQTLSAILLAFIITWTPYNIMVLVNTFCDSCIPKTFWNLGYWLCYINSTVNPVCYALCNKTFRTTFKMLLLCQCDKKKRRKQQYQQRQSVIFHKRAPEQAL

Take a look at these entries with their results.
COc1ccc(CCNC(=O)NCC2(c3ccccc3)CCN(C)CC2)cc1OC    < 5.00
COc1ccc(CCNC(=O)C2(c3ccccc3)CCN(C)CC2)cc1OC    < 5.00

Let us move to another entry and its pKi.
Output reported pKi of the compound COc1ccc(CCC(=O)NCC2(c3ccccc3)CCN(C)CC2)cc1OC on Muscarinic acetylcholine receptor M3 (Homo sapiens, UniProt P20309).
< 4.52

---

Target: Muscarinic acetylcholine receptor M1 (Homo sapiens)
Sequence (P11229 whole entry): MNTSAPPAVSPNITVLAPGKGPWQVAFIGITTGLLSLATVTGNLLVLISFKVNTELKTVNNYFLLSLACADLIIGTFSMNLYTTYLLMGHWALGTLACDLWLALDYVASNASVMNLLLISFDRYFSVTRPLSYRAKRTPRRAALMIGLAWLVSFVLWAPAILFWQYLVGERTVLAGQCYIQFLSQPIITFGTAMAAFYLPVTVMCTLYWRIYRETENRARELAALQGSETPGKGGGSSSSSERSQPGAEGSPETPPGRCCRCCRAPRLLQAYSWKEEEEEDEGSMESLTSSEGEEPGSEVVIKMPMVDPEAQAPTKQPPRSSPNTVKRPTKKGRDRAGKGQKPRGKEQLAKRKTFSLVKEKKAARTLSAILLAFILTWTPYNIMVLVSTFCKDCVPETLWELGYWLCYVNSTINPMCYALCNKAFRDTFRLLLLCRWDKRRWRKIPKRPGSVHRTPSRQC
Experimental Endpoint: Ki

Take a look at these entries with their results.
COc1ccc(CCNC(=O)C2(c3ccccc3)CCN(C)CC2)cc1OC    > 30 µM
COc1ccc(CCNC(=O)C2(c3ccccc3)CCN(C)CC2)cc1    > 10 µM

// fetch Ki given entry COc1ccc(CCC(=O)NCC2(c3ccccc3)CCN(C)CC2)cc1OC
> 10 µM

// fetch Ki given entry COc1ccc(CCNC(=O)NCC2(c3ccccc3)CCN(C)CC2)cc1OC
> 10 µM

Data credit: ChEMBL document CHEMBL3627629
